- assayed.target: N-terminal Xaa-Pro-Lys N-methyltransferase 1 (Homo sapiens)
- method.notes: Primary qHTS for Inhibitors of N-terminal methyltransferase 1 (NTMT1): MTaseGlo Assay; note: nearly all actives have a fitted effect of over 65% in size; note: potency is the fitted concentration of half-maximal effect
- experimental.conditions: NTMT1 MTase-Glo SAH luminescence, purified enzyme; series mostly up to 114 µM
About 1,500 (2.5%) of roughly 59,000 compounds were called active. Not shown: some 10% with an inconclusive outcome. This is one part of a sample in which actives are shown more often than they occur.
quantity: Potency

CCOC(=O)C1CCN(C(=O)C(C)(C)NC(=O)Nc2ccc(F)c(F)c2)CC1    inactive
Cc1cc(C)n2ncc(C(=O)Nc3cccc(C#N)c3)c2n1    inactive
O=C(Nc1cc(Cc2ccccc2)ccn1)c1ccc(-c2cccc([N+](=O)[O-])c2)o1    inactive
Cc1cc(Oc2ccc3nc(COc4ccc(CC5SC(=O)NC5=O)cc4)n(C)c3c2)cc(C)c1N (stereo not drawn)    inactive
Cc1cc(C)n2ncc(C(=O)N3CCCC3)c2n1    inactive
CC(C)=CCC[C@](C)(O[C@@H]1O[C@H](CO[C@@H]2O[C@H](CO)[C@@H](O)[C@H](O)[C@H]2O)[C@@H](O)[C@H](O)[C@H]1O)[C@H]1CC[C@]2(C)[C@@H]1[C@H](O)C[C@@H]1[C@@]3(C)CC[C@H](O[C@@H]4O[C@H](CO)[C@@H](O)[C@H](O)[C@H]4O[C@@H]4O[C@H](CO)[C@@H](O)[C@H](O)[C@H]4O)C(C)(C)[C@@H]3CC[C@]12C    inactive
N#Cc1ccc(N[S+](=O)([O-])c2ccc(Nc3nc(-c4ccccc4)cs3)cc2)cc1    inactive
OCc1cnc(SCc2ccc(F)cc2)n1Cc1ccc(F)cc1    89.1 µM (active)
Cc1nn2c(=O)cc(COC(=O)c3cccc(NC(=O)COc4ccccc4Cl)c3)nc2s1    inactive
COc1cccc(C(=O)Nc2ccc3nc4n(c(=O)c3c2)CCCCC4)c1    50.1 µM (active)

Challenge: Quick one: Potency of "Cc1ccc(-c2cc(C(=O)Nc3cccc(Cl)c3)c3ccccc3n2)cc1C" ?
Response given: inactive

Challenge: Given "O=C(OCC#CCSc1nnc(-c2ccco2)o1)c1ccc(F)cc1" , state its recorded Potency.
Response given: inactive

Challenge: Query (compound): CC(C)C(=O)Nc1nc2c(s1)CC(C(C)(C)C)CC2 (stereo not drawn) ; field requested: Potency
Response given: 79.4 µM (active)
